Listed here: items and their measured selectivity ratio at 96 h.
# Protocol summary: Selectivity index, ratio of CC50 for Macaca mulatta hepatocytes to IC50 for antiplasmodial activity against hypnozoite Plasmodium cynomolgi B strain infected in Macaca mulatta hepatocytes incubated with sporozoite containing salivary gland homogenate obtained from dissected Anopheles dirus mosquitoes (infected with Plasmodium cynomolgi B strain) treatment started on day 4 post infection and continued daily for 4 days into fresh changed media until day 8 assessed as Liver stage (LS) activity by measuring radical cure mode by immunofluorescent staining analysis
# Format: toxicity, cell-based
# Test context: rhesus monkey, read-out: Selectivity Index

| Smiles entry | selectivity ratio at 96 h |
| --- | --- |
| O=c1c2ccc(OCc3cccc(C(F)(F)F)c3)cc2[nH]c2ccc(Cl)c(F)c12 | > 9.13 |
| O=c1c2c([nH]c3ccc(F)c(Oc4ccc(OC(F)(F)F)cc4)c13)CCCC2 | > 1.43 |
| CN1CCC(Oc2ccc3c(=O)c4c(F)cc(Cl)cc4[nH]c3c2)CC1 | > 1.1 |
| O=c1c2ccc(OCc3cccc(OC(F)(F)F)c3)cc2[nH]c2ccc(Cl)c(F)c12 | > 10.3 |

====

# Tested on: Plasmodium cynomolgi
# Protocol summary: Antiplasmodial activity against schizont Plasmodium cynomolgi B strain infected in Macaca mulatta hepatocytes incubated with sporozoite containing salivary gland homogenate obtained from dissected Anopheles dirus mosquitoes (infected with Plasmodium cynomolgi B strain) treatment started on day 4 post infection and continued daily for 4 days into fresh changed media until day 8 assessed as Liver stage (LS) activity by measuring radical cure mode by immunofluorescent staining analysis
# Format: functional, organism-based
# Test context: Hepatocyte
pIC50: −log10 of the molar value.
Value kind: pIC50

| Compound | Result qualifier | Observed result |
| --- | --- | --- |
| CC(C)(C)OC(=O)N1CCC(Oc2ccc3c(=O)c4c(F)cc(Cl)cc4[nH]c3c2)CC1 | = | 6.17 |
| CCN(CC)CCOc1ccc2c(=O)c3c([nH]c2c1)CCCC3 | < | 4.70 |
| O=c1c2c([nH]c3cc(Oc4ccc(OC(F)(F)F)cc4)ccc13)CCCC2 | = | 6.42 |
| O=c1c2c([nH]c3c(Oc4ccc(OC(F)(F)F)cc4)cccc13)CCCC2 | = | 4.75 |
| O=c1c2c(F)cc(Cl)cc2[nH]c2cccc(Oc3ccc(OC(F)(F)F)cc3)c12 | = | 4.78 |
| CCCN(CCC)CCCOc1ccc2c(=O)c3c([nH]c2c1)CCCC3 | = | 4.85 |
| O=c1c2c([nH]c3cc(OCc4ccc(OC(F)(F)F)cc4)ccc13)CCCC2 | < | 4.70 |
| O=c1c2cccc(Oc3ccc(OC(F)(F)F)cc3)c2[nH]c2cc(Cl)cc(F)c12 | < | 4.70 |
| CCN(CC)CCCOc1ccc2c(=O)c3c([nH]c2c1)CCCC3 | < | 4.70 |
| O=c1c2c([nH]c3ccc(F)c(Oc4ccc(OC(F)(F)F)cc4)c13)CCCC2 | < | 4.70 |
| COc1cc(C)c2c(Oc3cccc(C(F)(F)F)c3)c(OC)cc(NC(C)CCCN)c2n1 (configuration not stated) [TAFENOQUINE] | = | 5.26 |
| O=c1c2ccc(Oc3ccccc3OC(F)(F)F)cc2[nH]c2cc(Cl)cc(F)c12 | = | 5.38 |
| O=c1c2c([nH]c3cc(Oc4ccccc4OC(F)(F)F)ccc13)CCCC2 | < | 4.70 |
| O=c1c2cc(F)c(Oc3ccc(OC(F)(F)F)cc3)cc2[nH]c2cc(Cl)cc(F)c12 | = | 6.47 |
| O=c1c2ccc(Oc3ccc(OC(F)(F)F)cc3)cc2[nH]c2cc(Cl)c(F)cc12 | < | 4.70 |
| O=c1c2ccc(OCc3cccc(OC(F)(F)F)c3)cc2[nH]c2cc(Cl)cc(F)c12 | = | 6.21 |
| O=c1c2ccccc2[nH]c2cc(Oc3ccc(OC(F)(F)F)cc3)ccc12 | = | 5.74 |
| O=c1c2ccc(Oc3cccc(OC(F)(F)F)c3)cc2[nH]c2cc(F)c(Cl)cc12 | < | 4.70 |
| O=c1c2c([nH]c3cc(Nc4ccc(OC(F)(F)F)cc4)ccc13)CCCC2 | = | 5.85 |
| O=c1c2ccc(OCc3cccc(C(F)(F)F)c3)cc2[nH]c2ccc(Cl)c(F)c12 | = | 5.82 |
| CCCCCCOc1ccc2c(=O)c3c([nH]c2c1)CCCC3 | < | 4.70 |
| O=c1c2ccc(OC3CCNCC3)cc2[nH]c2cc(F)cc(Cl)c12 | = | 4.86 |
| CN(C)CCOc1ccc2c(=O)c3c([nH]c2c1)CCCC3 | < | 4.70 |
| O=c1c2ccc(Oc3ccc(OC(F)(F)F)cc3)cc2[nH]c2ccc(F)c(Cl)c12 | = | 5.46 |
| O=c1c2ccc(Oc3cccc(OC(F)(F)F)c3)cc2[nH]c2cc(Cl)cc(F)c12 | = | 4.79 |
| O=c1c2ccc(OCc3cccc(OC(F)(F)F)c3)cc2[nH]c2cc(F)cc(Cl)c12 | = | 5.45 |
| O=c1c2ccc(Oc3ccc(OC(F)(F)F)cc3)cc2[nH]c2ccc(Cl)c(F)c12 | = | 5.68 |

====

# Test context: mouse, microsomes, 1 h
Overview of reported CLH across a group of compounds:

| Smiles entry | CLH |
| --- | --- |
| O=c1c2ccc(OCc3ccc(OC(F)(F)F)cc3)cc2[nH]c2cc(Cl)cc(F)c12 | < 3.125 µL/min/mg |
| O=c1c2c([nH]c3cc(Oc4ccc(OC(F)(F)F)cc4)ccc13)CCCC2 | 117 µL/min/mg |
| O=c1c2c(F)cc(Cl)cc2[nH]c2cccc(Oc3ccc(OC(F)(F)F)cc3)c12 | 45.4 µL/min/mg |
| O=c1c2ccc(Oc3ccc(OC(F)(F)F)cc3)cc2[nH]c2cc(F)c(Cl)cc12 | < 3.125 µL/min/mg |
| CN(C)CCOc1ccc2c(=O)c3c([nH]c2c1)CCCC3 | > 500 µL/min/mg |
| O=c1c2ccc(Oc3cccc(OC(F)(F)F)c3)cc2[nH]c2cc(Cl)cc(F)c12 | 273 µL/min/mg |
| O=c1c2c([nH]c3ccc(F)c(Oc4ccc(OC(F)(F)F)cc4)c13)CCCC2 | 31.1 µL/min/mg |
| O=c1c2ccccc2[nH]c2cc(Oc3ccc(OC(F)(F)F)cc3)ccc12 | 11.5 µL/min/mg |
| O=c1c2cc(F)c(Oc3ccc(OC(F)(F)F)cc3)cc2[nH]c2cc(Cl)cc(F)c12 | 16.1 µL/min/mg |
| CC(C)(C)OC(=O)N1CCC(Oc2ccc3c(=O)c4c(F)cc(Cl)cc4[nH]c3c2)CC1 | 58.5 µL/min/mg |
| O=c1c2ccc(Oc3ccc(OC(F)(F)F)cc3)cc2[nH]c2cc(Cl)c(F)cc12 | 177 µL/min/mg |
